experiment: Stability in rat plasma assessed as parent compound remaining after 2 hrs; format: ADME, cell-free; conditions: read-out: Stability

mol.smiles | remaining at 2 h
O=C(CCCCCCC(=O)Nc1ccc(C(=O)NC2CCNCC2)cc1)NO | 85%

----------
target: Histone deacetylase 1 (Homo sapiens); test: Inhibition of human recombinant HDAC1 using Tosyl-Gly-ProLys(Ac)-AMC as substrate measured after 60 mins by fluorescence assay
Sequence (Q13547 whole entry): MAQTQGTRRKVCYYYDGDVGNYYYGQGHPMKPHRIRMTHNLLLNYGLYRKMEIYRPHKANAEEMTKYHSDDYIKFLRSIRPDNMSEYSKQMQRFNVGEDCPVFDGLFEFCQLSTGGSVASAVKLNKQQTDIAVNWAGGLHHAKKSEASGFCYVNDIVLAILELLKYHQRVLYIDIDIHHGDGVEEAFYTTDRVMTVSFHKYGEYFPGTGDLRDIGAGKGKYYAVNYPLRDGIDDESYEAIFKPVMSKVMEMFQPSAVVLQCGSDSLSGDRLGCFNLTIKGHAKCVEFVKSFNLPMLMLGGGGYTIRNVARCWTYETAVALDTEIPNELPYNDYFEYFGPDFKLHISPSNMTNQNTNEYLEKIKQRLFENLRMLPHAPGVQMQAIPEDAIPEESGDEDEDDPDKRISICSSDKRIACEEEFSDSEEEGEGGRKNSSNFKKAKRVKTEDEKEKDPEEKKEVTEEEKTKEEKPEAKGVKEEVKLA
pIC50: −log10 of the molar value.

mol.smiles | tested.system | pIC50
CCN(CC)CCNC(=O)c1ccc(NC(=O)CCCCCCC(=O)NO)cc1 | Histone deacetylase 1 (Homo sapiens) | 7.15
O=C(CCCCCCC(=O)Nc1ccc(C(=O)NC2CCNCC2)cc1)NO | Histone deacetylase 1 (Homo sapiens) | 6.82
